# measurement.notes: in vivo
# setup.conditions: male, Wistar, rat, plasma, po, 100 mg/kg
attribute.measured: Vd/F

Item under review: CN(C)C(=N)N=C(N)N . Reported Vd/F?
228 L

* * *

# measurement.notes: Plasma pharmacokinetics of sorafenib and sorafenib N-oxide in rats (HPLC-UV);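 also: pharmacokinetic parameters were computed with Phoenix WinNonlin 8.0 software from the plasma concentration–time curve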
# setup.conditions: male, Wistar, rat, plasma, po, 100 mg/kg, t1/2, rat plasma; single oral sorafenib 100 mg/kg + atorvastatin 20 mg/kg b.w. (ISOR+AT group)
attribute.measured: half-life (min)
Give bare numbers, in min.

Item under review: CNC(=O)c1cc(Oc2ccc(NC(=O)Nc3ccc(Cl)c(C(F)(F)F)c3)cc2)ccn1 . Reported half-life?
882
